- assayed_target: full-length human BTK (Homo sapiens (Human))
- Sequence (Q06187 whole entry): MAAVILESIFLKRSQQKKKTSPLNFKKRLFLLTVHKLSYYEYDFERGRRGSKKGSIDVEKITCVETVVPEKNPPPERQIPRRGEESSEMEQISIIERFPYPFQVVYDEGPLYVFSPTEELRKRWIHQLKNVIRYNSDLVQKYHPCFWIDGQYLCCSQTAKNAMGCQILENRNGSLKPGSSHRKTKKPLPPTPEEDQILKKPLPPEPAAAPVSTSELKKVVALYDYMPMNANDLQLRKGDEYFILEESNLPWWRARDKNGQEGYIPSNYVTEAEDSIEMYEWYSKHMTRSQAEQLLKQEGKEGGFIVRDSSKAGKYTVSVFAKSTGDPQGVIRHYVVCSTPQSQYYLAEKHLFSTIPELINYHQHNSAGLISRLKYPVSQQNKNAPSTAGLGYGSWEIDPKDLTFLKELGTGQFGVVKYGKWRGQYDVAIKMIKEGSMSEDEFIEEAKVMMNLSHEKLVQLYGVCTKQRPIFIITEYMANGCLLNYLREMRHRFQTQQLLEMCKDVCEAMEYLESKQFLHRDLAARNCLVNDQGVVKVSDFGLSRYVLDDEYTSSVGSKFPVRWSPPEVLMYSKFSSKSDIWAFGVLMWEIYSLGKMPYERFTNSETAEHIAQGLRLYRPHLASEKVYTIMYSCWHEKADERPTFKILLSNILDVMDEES
- test_description: BTK IC50 enzyme assay (microfluidic off-chip mobility shift kinase assay)
- measurement_parameters: incubated for 90 min. at 27 C; read-out: Time Dependent BTK Enzyme Assay IC50
pIC50: −log10 of the molar value.
measurement_type: pIC50

Recorded pIC50, per entry:
> print(dat)
                                   molecule  measurement.type  result
1  C=CC(=O)N1CCO[C@@H](COc2ncnc(N)c2-c2cnn(Cc3ccccc3)c2)C1             pIC50  > 6.00
2  C=CC(=O)Nc1cccc(-c2c(N)ncnc2Oc2ccc(Oc3ccccc3)cc2)c1             pIC50  > 7.00
3  C=CC(=O)Nc1cccc(Oc2ncnc(N)c2-c2ccc(OCc3ccc(OC)cc3)cc2)c1             pIC50  > 7.00
4  C=CC(=O)Nc1ccc(Oc2ncnc(N)c2-c2ccc(Oc3ccccc3)cc2)cc1             pIC50  > 7.00
5  C=CC(=O)Nc1cc(Oc2ncnc(N)c2-c2ccc(Oc3ccccc3)cc2)c(F)cc1F             pIC50  > 7.00

Note down pIC50 recorded for C=CC(=O)N1CCC2(CCC2Nc2ncnc(N)c2-c2ccc(Oc3ccccc3)cc2)CC1 (stereo not drawn)
< 6.00

Note down pIC50 recorded for `CC#CC(=O)[C@H]1CCC[C@@H](Nc2ncnc(N)c2-c2ccc(Oc3ccccc3)cc2)C1`
> 7.00

Give me measured pIC50, please, for this molecule: `Nc1ncnc(NCC2CCN(C(=O)C3=CCC3)CC2)c1-c1ccc(Oc2ccccc2)cc1`
> 6.00

For the molecule `C#CC(=O)N1CC2(CC(Oc3ncnc(N)c3-c3cnn(Cc4ccccc4)c3)C2)C1` , give its reported pIC50.
> 7.00

Assign pIC50 to the following record: `C=CC(=O)Nc1cccc(Oc2ncnc(N)c2-c2cnn(Cc3cccc(Cl)c3)c2)c1`
> 7.00

Determine its reported pIC50: `CN(C)C/C=C/C(=O)Nc1cccc(Oc2ccnc(N)c2-c2ccc(Oc3ccccc3)cc2)c1`
> 7.00

Find the measured pIC50 of `C=CC(=O)N1CCC(CNc2ncnc(N)c2-c2ccc(Oc3ccccc3)nc2)CC1` and report it.
< 6.00

----------
// pIC50 lookup, one value per entry
- assayed_target: full-length human BTK (Homo sapiens (Human))
- test_description: BTK IC50 enzyme assay (microfluidic off-chip mobility shift kinase assay)
- measurement_parameters: incubated for 90 min. at 27 C; read-out: Time Dependent BTK Enzyme Assay IC50
pIC50: −log10 of the molar value.

Solved entries (count: 2):
> print(dat)
                                   compound  result
1  C=CC(=O)N1CCCC(Nc2ncncc2-c2ccc(Oc3ccccc3)cc2)C1 (stereo not drawn)  > 6.00
2  C=CC(=O)[C@H]1CCC[C@H](Nc2ncnc(N)c2-c2ccc(Oc3ccccc3)cc2)C1  > 7.00

We next turn to a different compound, shown below.
Give the observed pIC50 of `C=CC(=O)N1CCC(CNc2ncnc(N)c2-c2ccc(Oc3ccccc3)c(F)c2F)CC1` for full-length human BTK (Homo sapiens (Human)).
> 7.00

----------
- assayed_target: full-length human BTK (Homo sapiens (Human))
- test_description: BTK IC50 enzyme assay (microfluidic off-chip mobility shift kinase assay)
- measurement_parameters: incubated for 90 min. at 27 C; read-out: Time Dependent BTK Enzyme Assay IC50
measurement_type: IC50

> print(dat)
                                   compound    result
1  CC#CC(=O)Nc1cccc(Oc2ccnc(N)c2-c2ccc(Oc3ccccc3)cc2)c1  < 0.1 µM
2  Nc1ncnc(NCC2CCN(C(=O)/C=C/CN3CC(F)(F)C3)CC2)c1-c1ccc(Oc2ccccc2)cc1    > 1 µM
3  C=CC(=O)N1CCCC(COc2ncnc(N)c2-c2ccc(Oc3ccccc3)cc2)C1 (stereo not drawn)  < 0.1 µM
4  C=CC(=O)Nc1cccc(Oc2ncnc(N)c2-c2ccc(OCc3ccccc3)cc2F)c1  < 0.1 µM
5  Nc1cccc(Oc2ncnc(N)c2-c2ccc(Oc3ccccc3)cc2)c1    > 1 µM

Supply recorded IC50 for `C=CC(=O)N1CC[C@@H](Oc2ncnc(N)c2-c2ccc(Oc3ccccc3)cc2)C1` here.
< 0.1 µM

Identify the reported IC50 for the following entry. C=CC(=O)NC1CCCN(c2ncnc(N)c2-c2ccc(Oc3ccccc3)cc2)C1 (stereo not drawn)
> 1 µM

Look up and state reported IC50 for `C=CC(=O)N1CCO[C@@H](COc2ncnc(N)c2-c2ccc(Oc3ccc(C#N)cc3)cc2)C1`
< 1 µM

For `CCC(=O)N1CCC(CNc2ncnc(N)c2-c2ccc(Oc3ccccc3)cc2)CC1` , write its IC50.
< 1 µM

Determine from records and report IC50 for `C=CC(=O)N1CCC(CNc2ncncc2-c2ccc(Oc3ccccc3)cc2)CC1`
< 0.1 µM

Return the recorded IC50 value; entry: `Nc1ncnc(Oc2cccc(NC(=O)/C=C/CN3CCOCC3)c2)c1-c1ccc(Oc2ccccc2)cc1`
< 0.1 µM

Tell us which IC50 value is on record for `CN(C)C/C=C/C(=O)N1CC[C@@H](Nc2ncnc(N)c2-c2ccc(Oc3ccccc3)cc2)C1`
< 1 µM
